Hello, the source for this data is patent US9630977B2, in case you need it.

test system: K. pneumoniae β13; assay: In vitro antibacterial activity test (broth microdilution); format: cell-based; details: Klebsiella pneumoniae, K. pneumoniae β13; read-out: MIC90
Readout: MIC90

In the examples that follow, each entry is paired with its recorded MIC90.
{"Compound": "CC(C)(O/N=C(\\C(=O)N[C@@H]1C(=O)N2C(C(=O)[O-])=C(C[n+]3cnc(N)c(NCCNC(=O)c4cc(=O)c(O)cn4O)c3)CSC12)c1nsc(N)n1)C(=O)O (stereo partly drawn)", "Result": "32 µg/mL"}
{"Compound": "CC(C)(O/N=C(\\C(=O)N[C@@H]1C(=O)N2C(C(=O)[O-])=C(C[n+]3cnc(N)c(NCCCCNC(=O)c4cc(=O)c(O)cn4O)c3)CSC12)c1csc(N)n1)C(=O)O (stereo partly drawn)", "Result": "< 0.0625 µg/mL"}

// next entry
q: Fill blank: measured MIC90 of the compound CC(C)(O/N=C(\C(=O)N[C@@H]1C(=O)N2C(C(=O)[O-])=C(C[n+]3cnc(N)c(NC(=O)c4cc(=O)c(O)cn4O)c3)CSC12)c1nc(N)sc1Cl)C(=O)O (stereo partly drawn) is ____.
a: 2 µg/mL

----------
Test system: K. pneumoniae β9
Assay: In vitro antibacterial activity test (broth microdilution)
Assay type: cell-based
Conditions: Klebsiella pneumoniae
Experimental: To evaluate antibacterial activity of each of the compounds of Examples 1 to 68, in vitro antibacterial activity test was performed. […] In vitro antibacterial activity was measured with respect to the following 19 clinical isolates: M. catarrhalis; P. aeruginosa (5 strains); K. pneumoniae (6 strains); A. baumannii (3 strains); E. coli (2 strains); A. calcoaceticus; and E. cloacae. […]
Readout: MIC90

{"Molecule": "CC(C)(O/N=C(\\C(=O)N[C@@H]1C(=O)N2C(C(=O)[O-])=C(/C=C/C[n+]3cnc(N)c(NCCN)c3)CSC12)c1nc(N)sc1Cl)C(=O)O (stereo partly drawn)", "Result": "1 µg/mL"}
{"Molecule": "CNCCNc1c[n+](C/C=C/C2=C(C(=O)[O-])N3C(=O)[C@@H](NC(=O)/C(=N\\OC(C)(C)C(=O)O)c4csc(N)n4)C3SC2)cnc1N (stereo partly drawn)", "Result": "0.5 µg/mL"}
{"Molecule": "CC(C)(O/N=C(\\C(=O)N[C@@H]1C(=O)N2C(C(=O)[O-])=C(/C=C/C[n+]3cnc(N)c(NC(=O)CCN)c3N)CSC12)c1csc(N)n1)C(=O)O (stereo partly drawn)", "Result": "0.5 µg/mL"}

q: Query MIC90 on K. pneumoniae β9 for C[C@H](O/N=C(\C(=O)N[C@@H]1C(=O)N2C(C(=O)[O-])=C(C[n+]3cnc(NCCN)c(NCCNC(=O)c4cc(=O)c(O)cn4O)c3)CSC12)c1nc(N)sc1Cl)C(=O)O (stereo partly drawn)
a: 2 µg/mL

q: Consider next the molecule CC(C)(O/N=C(\C(=O)N[C@@H]1C(=O)N2C(C(=O)[O-])=C(/C=C/C[n+]3cnc(N)c(NC(=O)CCCN)c3N)CSC12)c1nc(N)sc1Cl)C(=O)O (stereo partly drawn) in the same way.
a: 8 µg/mL

----------
Reported MIC90 is given for each of the following molecules.
tested on: E. cloacae β19; assay: In vitro antibacterial activity test (broth microdilution); assay type: cell-based; details: Enterobacter cloacae, read-out: MIC90

{"Molecule": "CC(C)(O/N=C(\\C(=O)N[C@@H]1C(=O)N2C(C(=O)[O-])=C(C[n+]3cnc(N)c(NCCNC(=O)c4ccc(O)c(C(=O)O)c4)c3)CSC12)c1csc(N)n1)C(=O)O (some centres unmarked)", "Assay System": "E. cloacae β19", "MIC90": "> 128 µg/mL"}
{"Molecule": "Cn1cc(O)c(=O)cc1C(=O)NCCNc1c[n+](CC2=C(C(=O)[O-])N3C(=O)[C@@H](NC(=O)/C(=N\\OC(C)(C)C(=O)O)c4csc(N)n4)C3SC2)cnc1N (some centres unmarked)", "Assay System": "E. cloacae β19", "MIC90": "> 128 µg/mL"}
{"Molecule": "CC(C)(O/N=C(\\C(=O)N[C@@H]1C(=O)N2C(C(=O)[O-])=C(C[n+]3cnc(N)c(NCCNC(=O)c4cc(=O)c(O)cn4O)c3)CSC12)c1nsc(N)n1)C(=O)O (some centres unmarked)", "Assay System": "E. cloacae β19", "MIC90": "16 µg/mL"}
{"Molecule": "CC(C)(O/N=C(\\C(=O)N[C@@H]1C(=O)N2C(C(=O)[O-])=C(C[n+]3cnc(N)c(NCCNC(=O)c4cc(=O)c(O)cn4O)c3)CSC12)c1csc(N)n1)C(=O)O (some centres unmarked)", "Assay System": "E. cloacae β19", "MIC90": "2 µg/mL"}

q: Fill blank: measured MIC90 of the molecule CC(C)(O/N=C(\C(=O)N[C@@H]1C(=O)N2C(C(=O)[O-])=C(C[n+]3cnc(N)c(NCCNC(=O)c4ccc(O)c(O)c4)c3)CSC12)c1csc(N)n1)C(=O)O (some centres unmarked) is ____.
a: 4 µg/mL
